Measured values drawn from ChEMBL document CHEMBL1649284 for this set.

- assay_text: Drug level in healthy human epithelial lining fluid at 6 mg/kg, iv for every 12 hrs on day 1 as 120 mins infusions followed by maintenance dose of 4 mg/kg every 12 hrs on day 2 and single 4 mg/kg dose on day 3 as 100 mins infusions after 12 hrs of last dose
- Type: ADME, organism-based
- conditions_used: read-out: Drug uptake

molecule: C[C@@H](c1ncncc1F)[C@](O)(Cn1cncn1)c1ccc(F)cc1F [VORICONAZOLE]
concentration at 12 h: 17200 ng/mL

###

- assay_text: Drug level healthy human alveolar macrophage at 200 mg, iv on day 1 as 200 mins infusion followed by maintenance dose of 100 mg every 24 hrs on days 2 and 3 as 100 mins infusions after 24 hrs of last dose
- Format: ADME, organism-based
- conditions_used: alveolar macrophages, read-out: Drug uptake
Numbered stars: 1 amine (or outer) side, 2 acyl side, 3 side chain; on linkers, the order of the positions; unused ones are H or OH. Bridge positions count the residues as written; N and C are the ends. Square brackets hold non-standard residues; d marks the D form. Peptide text beside a SMILES is read from it. * marks the point of attachment. pTerphenylCO(4''-OnC5H11) = CCCCCOc1ccc(-c2ccc(-c3ccc(C(=O)*)cc3)cc2)cc1; Orn(4R-OH,5R-OH) = O=C([C@H](C[C@@H](O)[C@@H](O)N[*:3])N[*:1])[*:2]; hTyr(3S-OH,4S-OH) = N[C@H](C(=O)O)[C@H](O)[C@@H](O)c1ccc(O)cc1; Pro(3S-OH,4S-Me) = C[C@H]1CN[C@H](C(=O)O)[C@H]1O; Hyp = O=C(O)[C@@H]1C[C@@H](O)CN1

compound: CCCCCOc1ccc(-c2ccc(-c3ccc(C(=O)N[C@H]4C[C@@H](O)[C@@H](O)NC(=O)[C@@H]5[C@@H](O)[C@@H](C)CN5C(=O)[C@H]([C@@H](C)O)NC(=O)[C@H]([C@H](O)[C@@H](O)c5ccc(O)cc5)NC(=O)[C@@H]5C[C@@H](O)CN5C(=O)[C@H]([C@@H](C)O)NC4=O)cc3)cc2)cc1 [ANIDULAFUNGIN] ({pTerphenylCO(4''-OnC5H11)}-[Orn(4R-OH,5R-OH)]T[Hyp][hTyr(3S-OH,4S-OH)]T[Pro(3S-OH,4S-Me)]; lactam 1-C)
unit_name: µg/mL
concentration at 24 h: 103

###

- assay_text: AUC (0 to t) in healthy human at 6 mg/kg, iv for every 12 hrs on day 1 as 120 mins infusions followed by maintenance dose of 4 mg/kg every 12 hrs on day 2 and single 4 mg/kg dose on day 3 as 100 mins infusions
- Format: ADME, organism-based
- conditions_used: plasma

smiles_record: C[C@@H](c1ncncc1F)[C@](O)(Cn1cncn1)c1ccc(F)cc1F
AUC(0-t), ng·h/mL: 39500

###

- assay_text: Drug level in healthy human epithelial lining fluid at 6 mg/kg, iv for every 12 hrs on day 1 as 120 mins infusions followed by maintenance dose of 4 mg/kg every 12 hrs on day 2 and single 4 mg/kg dose on day 3 as 100 mins infusions after 4 hrs of last dose
- Assay type: ADME, organism-based
- conditions_used: read-out: Drug uptake
readout: concentration at 4 h (ng/mL)

compound: C[C@@H](c1ncncc1F)[C@](O)(Cn1cncn1)c1ccc(F)cc1F [VORICONAZOLE]
endpoint_value: 48300

###

- assay_text: Tmax in healthy human at 6 mg/kg, iv for every 12 hrs on day 1 as 120 mins infusions followed by maintenance dose of 4 mg/kg every 12 hrs on day 2 and single 4 mg/kg dose on day 3 as 100 mins infusions
- Format: ADME, organism-based
- conditions_used: in vivo

compound: C[C@@H](c1ncncc1F)[C@](O)(Cn1cncn1)c1ccc(F)cc1F [VORICONAZOLE]
unit_name: h
Tmax: 1.8

###

- assay_text: Drug level healthy human plasma at 200 mg, iv on day 1 as 200 mins infusion followed by maintenance dose of 100 mg every 24 hrs on days 2 and 3 as 100 mins infusions after 4 hrs of last dose
- Type: ADME, organism-based
- conditions_used: read-out: Drug uptake
Numbered stars: 1 amine (or outer) side, 2 acyl side, 3 side chain; on linkers, the order of the positions; unused ones are H or OH. Bridge positions count the residues as written; N and C are the ends. Square brackets hold non-standard residues; d marks the D form. Peptide text beside a SMILES is read from it. * marks the point of attachment. pTerphenylCO(4''-OnC5H11) = CCCCCOc1ccc(-c2ccc(-c3ccc(C(=O)*)cc3)cc2)cc1; Orn(4R-OH,5R-OH) = O=C([C@H](C[C@@H](O)[C@@H](O)N[*:3])N[*:1])[*:2]; hTyr(3S-OH,4S-OH) = N[C@H](C(=O)O)[C@H](O)[C@@H](O)c1ccc(O)cc1; Pro(3S-OH,4S-Me) = C[C@H]1CN[C@H](C(=O)O)[C@H]1O; Hyp = O=C(O)[C@@H]1C[C@@H](O)CN1

compound: CCCCCOc1ccc(-c2ccc(-c3ccc(C(=O)N[C@H]4C[C@@H](O)[C@@H](O)NC(=O)[C@@H]5[C@@H](O)[C@@H](C)CN5C(=O)[C@H]([C@@H](C)O)NC(=O)[C@H]([C@H](O)[C@@H](O)c5ccc(O)cc5)NC(=O)[C@@H]5C[C@@H](O)CN5C(=O)[C@H]([C@@H](C)O)NC4=O)cc3)cc2)cc1 [ANIDULAFUNGIN] ({pTerphenylCO(4''-OnC5H11)}-[Orn(4R-OH,5R-OH)]T[Hyp][hTyr(3S-OH,4S-OH)]T[Pro(3S-OH,4S-Me)]; lactam 1-C)
concentration at 4 h [ng/mL]: 6000

###

- assay_text: Drug level healthy human epithelial lining fluid at 200 mg, iv on day 1 as 200 mins infusion followed by maintenance dose of 100 mg every 24 hrs on days 2 and 3 as 100 mins infusions after 8 hrs of last dose
- Type: ADME, organism-based
- conditions_used: read-out: Drug uptake
Numbered stars: 1 amine (or outer) side, 2 acyl side, 3 side chain; on linkers, the order of the positions; unused ones are H or OH. Bridge positions count the residues as written; N and C are the ends. Square brackets hold non-standard residues; d marks the D form. Peptide text beside a SMILES is read from it. * marks the point of attachment. pTerphenylCO(4''-OnC5H11) = CCCCCOc1ccc(-c2ccc(-c3ccc(C(=O)*)cc3)cc2)cc1; Orn(4R-OH,5R-OH) = O=C([C@H](C[C@@H](O)[C@@H](O)N[*:3])N[*:1])[*:2]; hTyr(3S-OH,4S-OH) = N[C@H](C(=O)O)[C@H](O)[C@@H](O)c1ccc(O)cc1; Pro(3S-OH,4S-Me) = C[C@H]1CN[C@H](C(=O)O)[C@H]1O; Hyp = O=C(O)[C@@H]1C[C@@H](O)CN1
readout: concentration at 8 h (ng/mL)

compound: CCCCCOc1ccc(-c2ccc(-c3ccc(C(=O)N[C@H]4C[C@@H](O)[C@@H](O)NC(=O)[C@@H]5[C@@H](O)[C@@H](C)CN5C(=O)[C@H]([C@@H](C)O)NC(=O)[C@H]([C@H](O)[C@@H](O)c5ccc(O)cc5)NC(=O)[C@@H]5C[C@@H](O)CN5C(=O)[C@H]([C@@H](C)O)NC4=O)cc3)cc2)cc1 [ANIDULAFUNGIN] ({pTerphenylCO(4''-OnC5H11)}-[Orn(4R-OH,5R-OH)]T[Hyp][hTyr(3S-OH,4S-OH)]T[Pro(3S-OH,4S-Me)]; lactam 1-C)
readout: concentration at 8 h
unit_name: ng/mL
endpoint_value: 800

###

- assay_text: Drug level in healthy human alveolar macrophage at 6 mg/kg, iv for every 12 hrs on day 1 as 120 mins infusions followed by maintenance dose of 4 mg/kg every 12 hrs on day 2 and single 4 mg/kg dose on day 3 as 100 mins infusions after 8 hrs of last dose
- Assay type: ADME, organism-based
- conditions_used: alveolar macrophages, read-out: Drug uptake
readout: concentration at 8 h (ng/mL)

molecule: C[C@@H](c1ncncc1F)[C@](O)(Cn1cncn1)c1ccc(F)cc1F [VORICONAZOLE]
readout: concentration at 8 h
unit_name: ng/mL
endpoint_value: 10300

###

- assay_text: Tmax in healthy human at 200 mg, iv on day 1 as 200 mins infusion followed by maintenance dose of 100 mg every 24 hrs on days 2 and 3 as 100 mins infusions
- Type: ADME, organism-based
- conditions_used: in vivo
Numbered stars: 1 amine (or outer) side, 2 acyl side, 3 side chain; on linkers, the order of the positions; unused ones are H or OH. Bridge positions count the residues as written; N and C are the ends. Square brackets hold non-standard residues; d marks the D form. Peptide text beside a SMILES is read from it. * marks the point of attachment. pTerphenylCO(4''-OnC5H11) = CCCCCOc1ccc(-c2ccc(-c3ccc(C(=O)*)cc3)cc2)cc1; Orn(4R-OH,5R-OH) = O=C([C@H](C[C@@H](O)[C@@H](O)N[*:3])N[*:1])[*:2]; hTyr(3S-OH,4S-OH) = N[C@H](C(=O)O)[C@H](O)[C@@H](O)c1ccc(O)cc1; Pro(3S-OH,4S-Me) = C[C@H]1CN[C@H](C(=O)O)[C@H]1O; Hyp = O=C(O)[C@@H]1C[C@@H](O)CN1

compound: CCCCCOc1ccc(-c2ccc(-c3ccc(C(=O)N[C@H]4C[C@@H](O)[C@@H](O)NC(=O)[C@@H]5[C@@H](O)[C@@H](C)CN5C(=O)[C@H]([C@@H](C)O)NC(=O)[C@H]([C@H](O)[C@@H](O)c5ccc(O)cc5)NC(=O)[C@@H]5C[C@@H](O)CN5C(=O)[C@H]([C@@H](C)O)NC4=O)cc3)cc2)cc1 [ANIDULAFUNGIN] ({pTerphenylCO(4''-OnC5H11)}-[Orn(4R-OH,5R-OH)]T[Hyp][hTyr(3S-OH,4S-OH)]T[Pro(3S-OH,4S-Me)]; lactam 1-C)
Tmax, h: 1.9
